- method_summary: Hygroscopicity experiment (DVS)
- Type: physicochemical
- conditions_used: Cycle 1, target relative humidity 70.0%, 25° C.
Label key: YES means % percentage of mass change, Sorption under 0.6%; NO means % percentage of mass change, Sorption of 0.6% or more.

Here's an entry: N#Cc1cc2n(CC(=O)Nc3ccc(F)cn3)c(=O)c3ccc(C(F)(F)F)nc3n2n1.O=S(=O)(O)O [Sulfate (crystal form B)] . Is its % percentage of mass change, Sorption below 0.6%? YES

Here's an entry: Cl.N#Cc1cc2n(CC(=O)Nc3ccc(F)cn3)c(=O)c3ccc(C(F)(F)F)nc3n2n1 [Hydrochloride (crystal form A)] . Is its % percentage of mass change, Sorption below 0.6%? NO

Here's an entry: CS(=O)(=O)O.N#Cc1cc2n(CC(=O)Nc3ccc(F)cn3)c(=O)c3ccc(C(F)(F)F)nc3n2n1 [Methanesulfonate (crystal form A)] . Is its % percentage of mass change, Sorption below 0.6%? YES

Here's an entry: Br.N#Cc1cc2n(CC(=O)Nc3ccc(F)cn3)c(=O)c3ccc(C(F)(F)F)nc3n2n1 [Hydrobromide (crystal form B)] . Is its % percentage of mass change, Sorption below 0.6%? NO

---
Here's an entry: CCS(=O)(=O)O.N#Cc1cc2n(CC(=O)Nc3ccc(F)cn3)c(=O)c3ccc(C(F)(F)F)nc3n2n1 [Ethanesulfonate (crystal form A)] . Is its % percentage of mass change, Sorption below 0.6%? YES

----------
- method_summary: Hygroscopicity experiment (DVS)
- Assay type: physicochemical
- conditions_used: Cycle 2, target relative humidity 20.0%, 25° C.
In this section, each of the compounds is paired with its reported % percentage of mass change, Sorption.
Write down the value, and be sure its unit follows.

Use these answered entries as a reference point.
Respond only with % percentage of mass change, Sorption recorded for Cl.N#Cc1cc2n(CC(=O)Nc3ccc(F)cn3)c(=O)c3ccc(C(F)(F)F)nc3n2n1 [Hydrochloride (crystal form A)] 0.236%

Respond only with % percentage of mass change, Sorption recorded for Br.N#Cc1cc2n(CC(=O)Nc3ccc(F)cn3)c(=O)c3ccc(C(F)(F)F)nc3n2n1 [Hydrobromide (crystal form B)] 0.153%

Respond only with % percentage of mass change, Sorption recorded for CCS(=O)(=O)O.N#Cc1cc2n(CC(=O)Nc3ccc(F)cn3)c(=O)c3ccc(C(F)(F)F)nc3n2n1 [Ethanesulfonate (crystal form A)] 0.083%

Respond only with % percentage of mass change, Sorption recorded for CS(=O)(=O)O.N#Cc1cc2n(CC(=O)Nc3ccc(F)cn3)c(=O)c3ccc(C(F)(F)F)nc3n2n1 [Methanesulfonate (crystal form A)] 0.073%

Now look at this entry.
Respond only with % percentage of mass change, Sorption recorded for N#Cc1cc2n(CC(=O)Nc3ccc(F)cn3)c(=O)c3ccc(C(F)(F)F)nc3n2n1.O=S(=O)(O)O [Sulfate (crystal form B)] 0.147%

----------
- method_summary: Hygroscopicity experiment (DVS)
- Assay type: physicochemical
- conditions_used: Cycle 2, target relative humidity 50.0%, 25° C.
parameter: % percentage of mass change, Sorption (%)
Reply numerically in %, unit not repeated.

Use these answered entries as a reference point.
Respond only with % percentage of mass change, Sorption recorded for CCS(=O)(=O)O.N#Cc1cc2n(CC(=O)Nc3ccc(F)cn3)c(=O)c3ccc(C(F)(F)F)nc3n2n1 [Ethanesulfonate (crystal form A)] 0.228

Respond only with % percentage of mass change, Sorption recorded for CS(=O)(=O)O.N#Cc1cc2n(CC(=O)Nc3ccc(F)cn3)c(=O)c3ccc(C(F)(F)F)nc3n2n1 [Methanesulfonate (crystal form A)] 0.209

Respond only with % percentage of mass change, Sorption recorded for Cl.N#Cc1cc2n(CC(=O)Nc3ccc(F)cn3)c(=O)c3ccc(C(F)(F)F)nc3n2n1 [Hydrochloride (crystal form A)] 7.383

Now look at this entry.
Respond only with % percentage of mass change, Sorption recorded for N#Cc1cc2n(CC(=O)Nc3ccc(F)cn3)c(=O)c3ccc(C(F)(F)F)nc3n2n1.O=S(=O)(O)O [Sulfate (crystal form B)] 0.369
